Target: human TLR9 (Homo sapiens)
Assay: TLR9 inhibition reporter assay (HEK-Blue SEAP)
Conditions: HEK-Blue cells overexpressing human TLR9, stimulated with ODN2006 5 nM, 22 hour incubation
Property: IC50 (nM)

Please review the entries below; each comes with its answer.
Cc1cc(-c2[nH]c3ccc(O[C@H]4CCCN(C)C4)cc3c2C(C)C)cn2ncnc12 :: 3640
COc1ccc(-c2[nH]c3ccc(OCC(=O)NC4CCC(N)CC4)cc3c2C(C)C)cc1OC (stereo not shown) :: 908
Cc1cc(-c2[nH]c3ccc(OCC4CCN(CC(C)(C)O)CC4)cc3c2C(C)C)cn2ncnc12 :: 1750
Cc1cc(-c2[nH]c3ccc(OC4CCNCC4)cc3c2C(C)C)ccn1 :: 1080
Cc1cc(-c2[nH]c3ccc(OCCN4CCCC4)cc3c2C(C)C)cn2ncnc12 :: 2140
Cc1cc(-c2[nH]c3ccc(OCC4CCN(C(=O)CN(C)C)CC4)cc3c2C(C)C)cc(C)n1 :: 346
COc1ccc(-c2[nH]c3ccc(OCC(=O)N4CCC[C@H](N)C4)cc3c2C(C)C)cc1OC :: 2660
COc1ccc(-c2[nH]c3ccc(OCC(=O)N4CCC[C@]5(CCCC[C@@H]5N)C4)cc3c2C(C)C)cc1OC :: 2310

I = Cc1cc(-c2[nH]c3ccc(OCC4CCCN(C)C4)cc3c2C(C)C)cc(C)n1 (stereo not shown)
II = Cc1cc(-c2[nH]c3ccc(OCC4CN(C(=O)CN(C)C)C4)cc3c2C(C)C)cn2ncnc12
Pick one: I or II . Which one has the lower reported IC50? Reply briefly: the label of your chosen item.
I
(I: 304 nM, II: 3160 nM)

---

Molecular target: human TLR7 (Homo sapiens)
Sequence (Q9NYK1 27-1049): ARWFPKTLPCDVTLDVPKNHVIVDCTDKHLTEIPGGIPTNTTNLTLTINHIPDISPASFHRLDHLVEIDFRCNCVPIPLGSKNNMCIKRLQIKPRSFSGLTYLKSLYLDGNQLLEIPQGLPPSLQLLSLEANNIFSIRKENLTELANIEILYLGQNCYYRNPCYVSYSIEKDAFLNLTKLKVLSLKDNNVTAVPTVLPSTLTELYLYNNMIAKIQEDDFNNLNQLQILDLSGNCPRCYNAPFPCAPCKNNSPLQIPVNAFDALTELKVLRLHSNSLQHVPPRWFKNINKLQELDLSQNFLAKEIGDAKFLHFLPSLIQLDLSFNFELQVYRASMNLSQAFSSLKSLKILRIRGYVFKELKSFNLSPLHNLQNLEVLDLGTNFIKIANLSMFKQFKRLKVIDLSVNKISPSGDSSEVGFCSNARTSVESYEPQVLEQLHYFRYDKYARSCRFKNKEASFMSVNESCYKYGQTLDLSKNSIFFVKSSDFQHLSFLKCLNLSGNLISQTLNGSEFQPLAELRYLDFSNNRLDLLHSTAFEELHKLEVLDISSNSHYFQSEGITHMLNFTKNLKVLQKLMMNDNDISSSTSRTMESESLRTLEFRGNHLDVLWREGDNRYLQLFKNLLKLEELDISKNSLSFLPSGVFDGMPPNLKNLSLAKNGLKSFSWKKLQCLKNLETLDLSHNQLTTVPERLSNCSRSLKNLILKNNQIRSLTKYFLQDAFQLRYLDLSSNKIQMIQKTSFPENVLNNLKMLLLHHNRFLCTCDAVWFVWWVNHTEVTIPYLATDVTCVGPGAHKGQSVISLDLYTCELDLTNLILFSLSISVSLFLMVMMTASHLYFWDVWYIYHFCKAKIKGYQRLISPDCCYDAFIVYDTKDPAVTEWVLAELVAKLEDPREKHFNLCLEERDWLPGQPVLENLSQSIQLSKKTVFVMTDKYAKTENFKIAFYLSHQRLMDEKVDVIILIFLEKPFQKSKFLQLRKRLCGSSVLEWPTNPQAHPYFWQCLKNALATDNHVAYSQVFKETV
Test: TLR7 inhibition reporter assay (HEK-Blue SEAP)
Conditions: HEK-Blue cells overexpressing human TLR7, stimulated with gardiquimod 7.5 μM, 22 hour incubation
Property: IC50 (nM)

Please review the entries below; each comes with its answer.
Cc1c(-c2[nH]c3ccc(OCC4CCN(C(C)C)CC4)cc3c2C(C)C)cn(C)c(=O)c1C :: 9.2
Cc1cc(-c2[nH]c3ccc(OCC4CCN(CC(=O)N(C)C)CC4)cc3c2C(C)C)cn2ncnc12 :: 0.4
COc1ccc(-c2[nH]c3ccc(OC4CCNCC4)cc3c2C(C)C)cc1OC :: 166
Cc1cc(-c2[nH]c3ccc(OC4CCN(C5CCN(C(C)C)CC5)CC4)cc3c2C(C)C)ccn1 :: 6

1 = Cc1cc(-c2[nH]c3ccc(OCC4CCCN(CC(C)(C)O)C4)cc3c2C(C)C)cc(C)n1 (centres unmarked)
2 = Cc1c(-c2[nH]c3ccc(OCC4CN(CC(C)(C)O)C4)cc3c2C(C)C)cn2cnnc2c1C
3 = COc1ccc(-c2[nH]c3ccc(OCC(=O)N[C@@H]4CCCC[C@H]4N)cc3c2C(C)C)cc1OC
4 = CNC(=O)CN1CCC(COc2ccc3[nH]c(-c4cn(C)c(=O)c(C)c4C)c(C(C)C)c3c2)CC1
Endpoint returns the given compounds ordered by ascending IC50. Present the labels in the sequence the task asks for.
2, 1, 4, 3
(2: 6.1 nM, 1: 9.6 nM, 4: 16.1 nM, 3: 398 nM)

---

Biological target: human TLR9 (Homo sapiens, UniProt Q9NR96)
Sequence (Q9NR96 26-1032): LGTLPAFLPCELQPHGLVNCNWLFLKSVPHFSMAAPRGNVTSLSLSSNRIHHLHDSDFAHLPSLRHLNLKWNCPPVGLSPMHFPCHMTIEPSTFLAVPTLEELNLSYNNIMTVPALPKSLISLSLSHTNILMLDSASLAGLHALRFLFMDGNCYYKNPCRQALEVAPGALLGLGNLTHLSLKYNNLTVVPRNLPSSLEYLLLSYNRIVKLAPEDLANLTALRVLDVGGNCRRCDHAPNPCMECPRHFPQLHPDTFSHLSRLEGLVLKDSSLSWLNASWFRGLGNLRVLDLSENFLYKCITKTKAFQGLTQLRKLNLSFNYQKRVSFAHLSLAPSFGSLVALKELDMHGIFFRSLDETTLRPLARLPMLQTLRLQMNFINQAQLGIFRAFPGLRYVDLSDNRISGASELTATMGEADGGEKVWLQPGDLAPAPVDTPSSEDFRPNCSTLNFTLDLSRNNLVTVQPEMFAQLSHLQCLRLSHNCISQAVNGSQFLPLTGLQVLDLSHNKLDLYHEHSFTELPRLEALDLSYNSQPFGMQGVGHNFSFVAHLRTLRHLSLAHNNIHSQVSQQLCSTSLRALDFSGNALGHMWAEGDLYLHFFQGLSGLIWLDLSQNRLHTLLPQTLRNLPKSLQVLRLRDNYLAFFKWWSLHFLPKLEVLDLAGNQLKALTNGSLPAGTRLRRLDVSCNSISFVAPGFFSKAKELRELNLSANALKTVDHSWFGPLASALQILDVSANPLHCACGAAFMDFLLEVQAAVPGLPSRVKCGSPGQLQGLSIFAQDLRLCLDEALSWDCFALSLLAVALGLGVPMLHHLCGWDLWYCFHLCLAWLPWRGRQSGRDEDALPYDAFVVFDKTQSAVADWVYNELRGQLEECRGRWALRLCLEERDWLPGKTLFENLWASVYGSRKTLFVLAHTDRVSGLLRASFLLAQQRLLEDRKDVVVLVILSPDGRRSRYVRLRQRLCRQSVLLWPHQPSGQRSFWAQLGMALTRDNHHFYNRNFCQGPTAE
Test: TLR9 inhibition reporter assay (HEK-Blue SEAP)
Conditions: HEK-Blue cells overexpressing human TLR9, stimulated with ODN2006 5 nM, 22 hour incubation
pIC50: −log10 of the molar value.
Property: pIC50

Please review the entries below; each comes with its answer.
Cc1cc(-c2[nH]c3ccc(OCC4CCN(C)CC4)cc3c2C(C)C)ccn1 :: 5.81
Cc1c(-c2[nH]c3ccc(OC4CCN(CC(=O)N(C)C)CC4)cc3c2C(C)C)cn(C)c(=O)c1C :: 4.71

I = COc1ccc(-c2[nH]c3ccc(OCC(=O)NC4CCNCC4)cc3c2C(C)C)cc1OC
II = CCCN1CCC(Oc2ccc3[nH]c(-c4cn5cnnc5c(C)c4C)c(C(C)C)c3c2)CC1
III = Cc1cc(-c2[nH]c3ccc(OCC4CCN(CC(C)(C)O)CC4)cc3c2C(C)C)cn(C)c1=O
IV = Cc1cc(-c2[nH]c3ccc(OCC4CCN(CC(=O)N(C)C)CC4)cc3c2C(C)C)cn2ncnc12
Endpoint returns the given molecules ordered by ascending pIC50. Present the labels in the sequence the task asks for.
III, IV, II, I
(III: 4.94, IV: 5.36, II: 5.66, I: 6.11)

1 = COCCN1CCC(Oc2ccc3[nH]c(-c4cc(C)nc(C)c4)c(C(C)C)c3c2)CC1
2 = COc1ccc(-c2[nH]c3ccc(OCC4CCNCC4)cc3c2C(C)C)cc1OC
Which one would you say has the larger pIC50 value: 1 , or 2 ? Reply briefly: the label of your chosen item.
1

---

Target: human TLR8 (Homo sapiens)
Sequence (Q9NR97 27-1041): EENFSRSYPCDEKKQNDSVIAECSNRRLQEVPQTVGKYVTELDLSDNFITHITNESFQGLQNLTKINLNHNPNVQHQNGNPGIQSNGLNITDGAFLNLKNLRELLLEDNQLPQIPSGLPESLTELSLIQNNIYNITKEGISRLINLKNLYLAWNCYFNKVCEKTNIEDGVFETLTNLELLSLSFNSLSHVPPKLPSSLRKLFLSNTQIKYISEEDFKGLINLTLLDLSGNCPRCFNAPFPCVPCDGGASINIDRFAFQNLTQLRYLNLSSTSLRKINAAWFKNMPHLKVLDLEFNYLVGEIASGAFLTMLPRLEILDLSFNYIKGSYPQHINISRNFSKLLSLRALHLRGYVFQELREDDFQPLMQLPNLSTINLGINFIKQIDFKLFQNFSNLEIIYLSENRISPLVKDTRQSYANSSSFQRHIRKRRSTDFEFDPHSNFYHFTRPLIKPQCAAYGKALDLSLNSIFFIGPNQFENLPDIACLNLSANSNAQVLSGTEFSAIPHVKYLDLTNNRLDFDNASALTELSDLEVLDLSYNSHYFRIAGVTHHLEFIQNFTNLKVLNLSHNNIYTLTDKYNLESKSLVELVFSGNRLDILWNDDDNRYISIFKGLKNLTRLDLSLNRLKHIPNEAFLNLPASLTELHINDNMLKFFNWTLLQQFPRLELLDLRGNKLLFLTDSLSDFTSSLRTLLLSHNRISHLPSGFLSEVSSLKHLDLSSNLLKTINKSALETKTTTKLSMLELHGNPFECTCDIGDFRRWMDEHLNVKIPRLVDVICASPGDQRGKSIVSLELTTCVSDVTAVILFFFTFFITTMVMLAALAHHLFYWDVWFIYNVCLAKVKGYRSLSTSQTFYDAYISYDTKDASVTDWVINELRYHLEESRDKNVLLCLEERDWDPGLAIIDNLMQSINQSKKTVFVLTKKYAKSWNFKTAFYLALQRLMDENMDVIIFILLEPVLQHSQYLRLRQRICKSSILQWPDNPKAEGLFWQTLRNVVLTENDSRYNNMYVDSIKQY
Assay: TLR8 inhibition reporter assay (HEK-Blue SEAP)
Settings: HEK-Blue cells overexpressing human TLR8, stimulated with R848 15.9 μM, 22 hour incubation
Property: IC50 (nM)

Please review the entries below; each comes with its answer.
Cc1c(-c2[nH]c3ccc(OC4CCN(C(C)C)CC4)cc3c2C(C)C)cn2cnnc2c1C :: 14.5
COc1ccc(-c2[nH]c3ccc(OCC(=O)N[C@H]4CCNC4)cc3c2C(C)C)cc1OC :: 11.6
Cc1cc(-c2[nH]c3ccc(OCC4CCN(C5COC5)CC4)cc3c2C(C)C)cn2ncnc12 :: 1.1
Cc1c(-c2[nH]c3ccc(OC4CCN(C5COC5)CC4)cc3c2C(C)C)cn2cnnc2c1C :: 19.4
Cc1cc(-c2[nH]c3ccc(OCC4CCN(C(C)C)CC4)cc3c2C(C)C)cc(C)n1 :: 2.7

A = Cc1c(-c2[nH]c3ccc(OCC4CCN(C5COC5)CC4)cc3c2C(C)C)cn2cnnc2c1C
B = Cc1cc(-c2[nH]c3ccc(OC4CCCNC4)cc3c2C(C)C)ccn1 (stereo not shown)
C = Cc1c(-c2[nH]c3ccc(OCC4CN(C(=O)CN(C)C)C4)cc3c2C(C)C)cn2cnnc2c1C
Descending sort on IC50 required. Present the labels in the sequence the task asks for.
C, B, A
(C: 124 nM, B: 33.4 nM, A: 5.8 nM)

a = CNC(=O)CN1CCC(COc2ccc3[nH]c(-c4cn(C)c(=O)c(C)c4C)c(C(C)C)c3c2)CC1
b = Cc1cc(-c2[nH]c3ccc(OCC(=O)N4CCCC5(CNC5)C4)cc3c2C(C)C)ccn1
Which one would you say has the larger IC50 value: a , or b ? Reply briefly: the label of your chosen item.
b
